Entries and their growth at 0.1 µM values follow.
- Tested on: SK-MEL-28
- assay.summary: Cytotoxicity against human SK-MEL-28 cells assessed as cell growth at 0.1 uM after 48 hrs by sulforhodamine B assay relative to control
- Format: functional
- details: SK-MEL-28, 48 h, read-out: Activity
The reply should contain only the number, in %.

Previously resolved entries follow.
COc1cc(-c2cc(/C=C/C(=O)c3ccc(F)c(F)c3)[nH]n2)cc(OC)c1OC : 102
COc1cc(-c2cc(/C=C/C(=O)c3ccc4c(c3)OCO4)[nH]n2)cc(OC)c1OC : 106

[in] Param item = COc1ccc(C(=O)/C=C/c2cc(-c3cc(OC)c(OC)c(OC)c3)n[nH]2)cc1 ; retrieve measured growth at 0.1 µM.
[out] 104

[in] Param item = COc1cc(C(=O)/C=C/c2cc(-c3ccc4c(c3)OCO4)n[nH]2)cc(OC)c1OC ; retrieve measured growth at 0.1 µM.
[out] 99

[in] Param item = COc1ccc(-c2cc(/C=C/C(=O)c3ccc(N)cc3)[nH]n2)cc1 ; retrieve measured growth at 0.1 µM.
[out] 91

[in] Param item = COc1cc(-c2cc(/C=C/C(=O)c3ccc(N)cc3)[nH]n2)cc(OC)c1OC ; retrieve measured growth at 0.1 µM.
[out] 95

* * *

Entries and their growth at 0.01 µM values follow.
- Test system: SK-MEL-5
- assay.summary: Cytotoxicity against human SK-MEL-5 cells assessed as cell growth at 0.01 uM after 48 hrs by sulforhodamine B assay relative to control
- Type: functional
- details: SK-MEL-5, 48 h, read-out: Activity
The reply should contain only the number, in %.

Previously resolved entries follow.
COc1ccc(C(=O)/C=C/c2cc(-c3ccc(OC)c(OC)c3)n[nH]2)cc1OC : 96
COc1cc(-c2cc(/C=C/C(=O)c3ccc(Cl)c(Cl)c3)[nH]n2)cc(OC)c1OC : 98
COc1ccc(C(=O)/C=C/c2cc(-c3ccc4c(c3)OCO4)n[nH]2)cc1OC : 96

[in] Param item = COc1cc(-c2cc(/C=C/C(=O)c3ccc(N)cc3)[nH]n2)cc(OC)c1OC ; retrieve measured growth at 0.01 µM.
[out] 95

* * *

- Tested on: MDA-MB-435
- assay.summary: Cytotoxicity against human MDA-MB-435 cells assessed as cell growth at 0.01 uM after 48 hrs by sulforhodamine B assay relative to control
- Type: functional
- details: MDA-MB-435, 48 h, read-out: Activity
endpoint.name: growth at 0.01 µM (%)
The reply should contain only the number, in %.

Previously resolved entries follow.
COc1ccc(C(=O)/C=C/c2cc(-c3cc(OC)c(OC)c(OC)c3)n[nH]2)cc1OC : 95
COc1cc(-c2cc(/C=C/C(=O)c3ccc4c(c3)OCO4)[nH]n2)cc(OC)c1OC : 96
COc1ccc(-c2cc(/C=C/C(=O)c3ccc(N)cc3)[nH]n2)cc1 : 97
COc1cc(C(=O)/C=C/c2cc(-c3ccc4c(c3)OCO4)n[nH]2)cc(OC)c1OC : 96

Turning to the following compound.
[in] Param item = COc1ccc(C(=O)/C=C/c2cc(-c3ccc(OC)c(OC)c3)n[nH]2)cc1OC ; retrieve measured growth at 0.01 µM.
[out] 89

* * *

Entries and their growth at 0.01 µM values follow.
- Test system: HOP-62
- assay.summary: Cytotoxicity against human HOP62 cells assessed as cell growth at 0.01 uM after 48 hrs by sulforhodamine B assay relative to control
- Format: functional
- details: HOP-62, 48 h, read-out: Activity
The reply should contain only the number, in %.

Previously resolved entries follow.
COc1cc(-c2cc(/C=C/C(=O)c3ccc(N)cc3)[nH]n2)cc(OC)c1OC : 83
COc1cc(-c2cc(/C=C/C(=O)c3ccc(F)c(F)c3)[nH]n2)cc(OC)c1OC : 100
COc1cc(-c2cc(/C=C/C(=O)c3ccc4c(c3)OCO4)[nH]n2)cc(OC)c1OC : 101
COc1cc(-c2cc(/C=C/C(=O)c3ccc(Cl)c(Cl)c3)[nH]n2)cc(OC)c1OC : 99
COc1cc(C(=O)/C=C/c2cc(-c3cc(OC)c(OC)c(OC)c3)n[nH]2)cc(OC)c1OC : 97

[in] Param item = COc1ccc(-c2cc(/C=C/C(=O)c3ccc(OC)c(OC)c3)[nH]n2)cc1 ; retrieve measured growth at 0.01 µM.
[out] 97

* * *

- System: HCC 2998
- assay.summary: Cytotoxicity against human HCC2998 cells assessed as growth inhibition after 48 hrs by sulforhodamine B assay
- Type: functional
- details: HCC 2998, 48 h
endpoint.name: LC50

Previously resolved entries follow.
COc1cc(-c2cc(/C=C/C(=O)c3ccc(F)c(F)c3)[nH]n2)cc(OC)c1OC : > 100 µM
COc1cc(-c2cc(/C=C/C(=O)c3ccc4c(c3)OCO4)[nH]n2)cc(OC)c1OC : 6.43 µM
COc1ccc(-c2cc(/C=C/C(=O)c3ccc(N)cc3)[nH]n2)cc1OC : 7.24 µM

[in] Param item = COc1ccc(C(=O)/C=C/c2cc(-c3cc(OC)c(OC)c(OC)c3)n[nH]2)cc1OC ; retrieve measured LC50.
[out] 6.7 µM

[in] Param item = COc1ccc(-c2cc(/C=C/C(=O)c3ccc(N)cc3)[nH]n2)cc1 ; retrieve measured LC50.
[out] 6.17 µM

* * *

Entries and their growth at 100 µM values follow.
- Tested on: SF-539
- assay.summary: Cytotoxicity against human SF539 cells assessed as cell growth at 100 uM after 48 hrs by sulforhodamine B assay relative to control
- Format: functional
- details: SF-539, 48 h, read-out: Activity
Give the value; after it, write the unit.

Previously resolved entries follow.
COc1ccc(-c2cc(/C=C/C(=O)c3cc(OC)c(OC)c(OC)c3)[nH]n2)cc1OC : -87%
COc1ccc(C(=O)/C=C/c2cc(-c3ccc(OC)c(OC)c3)n[nH]2)cc1OC : -83%
COc1ccc(-c2cc(/C=C/C(=O)c3ccc(OC)c(OC)c3)[nH]n2)cc1 : -99%

[in] Param item = COc1cc(-c2cc(/C=C/C(=O)c3ccc(Cl)c(Cl)c3)[nH]n2)cc(OC)c1OC ; retrieve measured growth at 100 µM.
[out] -74%

* * *

Entries and their growth at 0.1 µM values follow.
- Test system: SK-MEL-5
- assay.summary: Cytotoxicity against human SK-MEL-5 cells assessed as cell growth at 0.1 uM after 48 hrs by sulforhodamine B assay relative to control
- Type: functional
- details: SK-MEL-5, 48 h, read-out: Activity
The reply should contain only the number, in %.

Previously resolved entries follow.
COc1cc(-c2cc(/C=C/C(=O)c3ccc4c(c3)OCO4)[nH]n2)cc(OC)c1OC : 97
COc1cc2c(cc1OC)C(=O)/C(=C/c1cc(-c3ccc4c(c3)OCO4)n[nH]1)C2 : 93
COc1ccc(C(=O)/C=C/c2cc(-c3cc(OC)c(OC)c(OC)c3)n[nH]2)cc1 : 99
COc1ccc(-c2cc(/C=C/C(=O)c3ccc(N)cc3)[nH]n2)cc1 : 90
COc1cc(-c2cc(/C=C/C(=O)c3ccc(Cl)c(Cl)c3)[nH]n2)cc(OC)c1OC : 97

Turning to the following compound.
[in] Param item = COc1ccc(-c2cc(/C=C/C(=O)c3ccc(OC)c(OC)c3)[nH]n2)cc1 ; retrieve measured growth at 0.1 µM.
[out] 93

* * *

- Test system: OVCAR-3
- assay.summary: Cytotoxicity against human OVCAR3 cells assessed as cell growth at 0.01 uM after 48 hrs by sulforhodamine B assay relative to control
- Format: functional
- details: OVCAR-3, 48 h, read-out: Activity
endpoint.name: growth at 0.01 µM
Give the value; after it, write the unit.

Previously resolved entries follow.
COc1ccc(C(=O)/C=C/c2cc(-c3ccc(OC)c(OC)c3)n[nH]2)cc1OC : 107%
COc1ccc(C(=O)/C=C/c2cc(-c3cc(OC)c(OC)c(OC)c3)n[nH]2)cc1 : 101%
COc1cc2c(cc1OC)C(=O)/C(=C/c1cc(-c3ccc4c(c3)OCO4)n[nH]1)C2 : 101%

[in] Param item = COc1cc(-c2cc(/C=C/C(=O)c3ccc4c(c3)OCO4)[nH]n2)cc(OC)c1OC ; retrieve measured growth at 0.01 µM.
[out] 104%

* * *

- Tested on: ACHN
- assay.summary: Cytotoxicity against human ACHN cells assessed as growth inhibition after 48 hrs by sulforhodamine B assay
- Type: functional
endpoint.name: TGI (µM)
The reply should contain only the number, in µM.

[in] Param item = COc1cc(-c2cc(/C=C/C(=O)c3ccc4c(c3)OCO4)[nH]n2)cc(OC)c1OC ; retrieve measured TGI.
[out] 3.71

[in] Param item = COc1ccc(C(=O)/C=C/c2cc(-c3ccc4c(c3)OCO4)n[nH]2)cc1OC ; retrieve measured TGI.
[out] 56.5

[in] Param item = COc1cc(C(=O)/C=C/c2cc(-c3ccc4c(c3)OCO4)n[nH]2)cc(OC)c1OC ; retrieve measured TGI.
[out] 4.95

[in] Param item = COc1ccc(C(=O)/C=C/c2cc(-c3cc(OC)c(OC)c(OC)c3)n[nH]2)cc1OC ; retrieve measured TGI.
[out] 3.09

[in] Param item = COc1ccc(-c2cc(/C=C/C(=O)c3ccc(OC)c(OC)c3)[nH]n2)cc1 ; retrieve measured TGI.
[out] 3.83
